Biological target: HiBit-WIZ fusion protein (Homo sapiens, UniProt O95785+Q96SW2)
Sequence (O95785 whole entry, the tested form may be a part): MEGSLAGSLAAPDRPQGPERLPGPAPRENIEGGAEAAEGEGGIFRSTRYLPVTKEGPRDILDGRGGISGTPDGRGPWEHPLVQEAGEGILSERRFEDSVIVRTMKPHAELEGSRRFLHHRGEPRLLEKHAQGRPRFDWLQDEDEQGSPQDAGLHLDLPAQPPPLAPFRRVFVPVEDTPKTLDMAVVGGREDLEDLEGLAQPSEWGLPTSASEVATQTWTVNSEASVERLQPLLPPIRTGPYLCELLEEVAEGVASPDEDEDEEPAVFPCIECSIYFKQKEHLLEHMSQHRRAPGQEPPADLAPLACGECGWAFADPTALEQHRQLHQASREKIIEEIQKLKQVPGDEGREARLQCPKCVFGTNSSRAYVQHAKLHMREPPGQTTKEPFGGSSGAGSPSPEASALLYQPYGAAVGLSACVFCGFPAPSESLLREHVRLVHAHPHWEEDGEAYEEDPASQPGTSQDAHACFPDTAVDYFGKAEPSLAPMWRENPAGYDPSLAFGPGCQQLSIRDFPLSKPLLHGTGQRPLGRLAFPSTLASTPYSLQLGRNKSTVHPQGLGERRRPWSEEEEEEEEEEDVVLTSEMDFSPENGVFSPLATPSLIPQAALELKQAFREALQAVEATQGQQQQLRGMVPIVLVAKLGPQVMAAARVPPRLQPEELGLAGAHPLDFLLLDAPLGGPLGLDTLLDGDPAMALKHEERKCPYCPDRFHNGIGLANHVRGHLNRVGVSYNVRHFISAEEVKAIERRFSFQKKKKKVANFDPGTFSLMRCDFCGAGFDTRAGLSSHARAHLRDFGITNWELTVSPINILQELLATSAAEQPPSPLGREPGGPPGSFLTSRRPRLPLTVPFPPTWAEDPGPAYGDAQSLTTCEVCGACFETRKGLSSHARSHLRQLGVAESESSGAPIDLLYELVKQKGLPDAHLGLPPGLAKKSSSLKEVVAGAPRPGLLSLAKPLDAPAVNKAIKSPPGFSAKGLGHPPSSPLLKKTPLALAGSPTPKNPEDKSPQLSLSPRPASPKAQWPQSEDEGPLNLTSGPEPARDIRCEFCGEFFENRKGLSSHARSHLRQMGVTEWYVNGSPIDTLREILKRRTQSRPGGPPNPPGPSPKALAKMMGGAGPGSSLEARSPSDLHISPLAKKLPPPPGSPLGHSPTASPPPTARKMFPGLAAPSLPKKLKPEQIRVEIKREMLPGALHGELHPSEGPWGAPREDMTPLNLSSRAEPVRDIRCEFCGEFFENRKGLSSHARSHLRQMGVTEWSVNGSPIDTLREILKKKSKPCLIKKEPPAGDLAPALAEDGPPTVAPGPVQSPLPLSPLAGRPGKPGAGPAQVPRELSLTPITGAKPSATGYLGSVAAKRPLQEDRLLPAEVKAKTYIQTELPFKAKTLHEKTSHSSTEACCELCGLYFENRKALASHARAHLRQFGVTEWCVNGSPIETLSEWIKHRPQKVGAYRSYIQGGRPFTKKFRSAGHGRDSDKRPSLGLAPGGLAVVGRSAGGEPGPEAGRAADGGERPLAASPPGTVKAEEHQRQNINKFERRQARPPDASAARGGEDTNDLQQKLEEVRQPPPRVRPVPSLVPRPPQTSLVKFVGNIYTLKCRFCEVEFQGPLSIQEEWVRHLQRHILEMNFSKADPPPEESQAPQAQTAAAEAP
Sequence (Q96SW2 whole entry, the tested form may be a part): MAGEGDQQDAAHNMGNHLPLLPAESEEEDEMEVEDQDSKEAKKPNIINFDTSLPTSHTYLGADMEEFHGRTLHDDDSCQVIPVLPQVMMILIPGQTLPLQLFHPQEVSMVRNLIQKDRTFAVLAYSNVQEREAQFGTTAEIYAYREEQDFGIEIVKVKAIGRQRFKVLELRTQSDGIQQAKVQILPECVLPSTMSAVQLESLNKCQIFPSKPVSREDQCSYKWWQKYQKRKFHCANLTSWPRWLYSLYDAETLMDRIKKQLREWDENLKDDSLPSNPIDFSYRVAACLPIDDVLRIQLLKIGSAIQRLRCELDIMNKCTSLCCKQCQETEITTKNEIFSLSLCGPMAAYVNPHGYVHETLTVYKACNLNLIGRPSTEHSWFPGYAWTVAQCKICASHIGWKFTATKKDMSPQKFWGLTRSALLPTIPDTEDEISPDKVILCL
Sequence (Q16531 whole entry partner, the tested form may be a part): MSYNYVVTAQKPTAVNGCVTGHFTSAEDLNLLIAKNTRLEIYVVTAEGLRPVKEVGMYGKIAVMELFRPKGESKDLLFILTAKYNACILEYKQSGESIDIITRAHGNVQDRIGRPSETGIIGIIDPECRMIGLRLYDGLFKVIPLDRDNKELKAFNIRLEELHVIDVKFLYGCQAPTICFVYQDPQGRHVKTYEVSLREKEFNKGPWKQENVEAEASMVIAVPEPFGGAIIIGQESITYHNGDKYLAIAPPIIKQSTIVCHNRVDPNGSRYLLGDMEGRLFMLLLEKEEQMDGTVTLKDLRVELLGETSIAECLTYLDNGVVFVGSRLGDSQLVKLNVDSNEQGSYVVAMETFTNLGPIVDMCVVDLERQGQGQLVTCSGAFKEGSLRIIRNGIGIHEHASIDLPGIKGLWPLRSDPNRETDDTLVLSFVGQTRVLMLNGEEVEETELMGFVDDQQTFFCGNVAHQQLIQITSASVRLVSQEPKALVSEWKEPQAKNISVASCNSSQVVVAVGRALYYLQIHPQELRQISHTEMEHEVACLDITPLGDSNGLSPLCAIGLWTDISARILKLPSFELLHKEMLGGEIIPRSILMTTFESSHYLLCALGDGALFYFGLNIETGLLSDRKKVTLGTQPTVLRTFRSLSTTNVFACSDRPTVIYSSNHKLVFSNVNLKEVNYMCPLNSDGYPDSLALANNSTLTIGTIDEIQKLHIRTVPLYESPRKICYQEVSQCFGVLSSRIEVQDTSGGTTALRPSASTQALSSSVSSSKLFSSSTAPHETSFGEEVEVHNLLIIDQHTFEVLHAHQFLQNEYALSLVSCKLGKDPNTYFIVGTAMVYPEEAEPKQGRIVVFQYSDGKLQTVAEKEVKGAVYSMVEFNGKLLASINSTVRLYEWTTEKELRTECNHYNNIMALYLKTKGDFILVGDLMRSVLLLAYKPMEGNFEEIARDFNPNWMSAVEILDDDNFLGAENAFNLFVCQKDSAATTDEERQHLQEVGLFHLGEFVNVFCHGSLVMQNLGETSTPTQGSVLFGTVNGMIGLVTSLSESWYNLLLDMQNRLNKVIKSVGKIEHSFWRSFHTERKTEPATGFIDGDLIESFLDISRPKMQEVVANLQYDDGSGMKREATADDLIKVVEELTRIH
Assay: Quantification of WIZ protein levels in HiBit tag fusion protein assay (WIZ HiBit assay in 293T cells)
Type: cell-based
Details: HEK-293T, DMSO-normalized, curve-fitted percentage of WIZ-HiBit remaining at 25 uM; 293T cells; read-out: WIZ Amax
observedProperty: remaining activity at up to 25 µM (%)

>>> measurednumber("CC(C)Cn1cc(CN2CCCC[C@@H]2COc2ccc3c(c2)CN(C2CCC(=O)NC2=O)C3=O)cn1 (some centres unmarked) [Compound I-50dw]")
1
>>> measurednumber("COc1ccncc1C(=O)N1CCCC[C@H]1COc1ccc2c(c1)CN(C1CCC(=O)NC1=O)C2=O (some centres unmarked) [Compound I-72bc]")
97
>>> measurednumber("COc1cc(C#N)ccc1CN1CCCC[C@H]1COc1ccc2c(c1)CN(C1CCC(=O)NC1=O)C2=O (some centres unmarked) [Compound I-50r]")
65.6
>>> measurednumber("O=C1CCC(N2Cc3cc(OC[C@@H]4CCCCN4C(=O)CCC(=O)N4CCOCC4)ccc3C2=O)C(=O)N1 (some centres unmarked) [Compound I-72eo]")
95.2
>>> measurednumber("COc1cc(CN2CCCC[C@@H]2COc2ccc3c(c2)CN(C2CCC(=O)NC2=O)C3=O)ccc1C#N (some centres unmarked)")
37.8

(P) O=C1CCC(N2Cc3cc(OC[C@@H]4CCCCN4C(=O)C45CC(F)(C4)C5)ccc3C2=O)C(=O)N1 (some centres unmarked) [Compound I-72iv]
(Q) Cc1nnc(-c2ccc(CN3CCCC[C@@H]3COc3ccc4c(c3)CN(C3CCC(=O)NC3=O)C4=O)cc2)o1 (some centres unmarked) [Compound I-50dv]
Problem: Kindly identify which of P and Q has the larger recorded remaining activity at up to 25 µM value. Please respond with the label that marks your chosen entry.
Result: P

(1) O=C1CCC(N2Cc3cc(OC[C@H]4CCCCN4Cc4ccc(N5CCN(C6CC6)CC5)cc4)ccc3C2=O)C(=O)N1 (some centres unmarked)
(2) Cc1nc(-c2cccc(CN3CCCC[C@H]3COc3ccc4c(c3)CN(C3CCC(=O)NC3=O)C4=O)c2)no1 (some centres unmarked) [Compound I-50bb]
Problem: Please state the entry with greater remaining activity at up to 25 µM among 1 and 2 . Selection: enter the item's label.
Result: 2

(a) Cn1nc(C(=O)N2CCCC[C@H]2COc2ccc3c(c2)CN(C2CCC(=O)NC2=O)C3=O)cc1-c1ccccc1 (some centres unmarked) [Compound I-72ir]
(b) CN(C)CC(=O)N1CCCC[C@H]1COc1ccc2c(c1)CN(C1CCC(=O)NC1=O)C2=O (some centres unmarked) [Compound I-72jk]
Problem: Of a and b , which one carries the higher reported remaining activity at up to 25 µM? Answer = label.
Result: b

---

Biological target: HiBit-WIZ fusion protein (Homo sapiens, UniProt O95785+Q96SW2)
Test: Quantification of WIZ protein levels in HiBit tag fusion protein assay (WIZ HiBit assay in 293T cells)
Type: cell-based
Conditions: WIZ HiBit assay in 293T cells; 10-point, 5-fold dose response, highest concentration 25 μM, about 18 hours; read-out: WIZ AC50
observedProperty: DC50 (nM)

>>> measurednumber("O=C1CCC(N2Cc3cc(OC[C@@H]4CCCCN4Cc4ccc(O)c(Cl)c4)ccc3C2=O)C(=O)N1 (stereo partly shown) [Compound I-50b]")
1480
>>> measurednumber("CCc1nc(C)c(CN2CCCC[C@H]2COc2ccc3c(c2)CN(C2CCC(=O)NC2=O)C3=O)[nH]1 (stereo partly shown) [Compound I-50cy]")
922

(1) O=C1CCC(N2Cc3cc(OC[C@@H]4CCCCN4C(=O)c4cc(-c5ccc(Br)cc5)on4)ccc3C2=O)C(=O)N1 (stereo partly shown) [Compound I-72ak]
(2) COC12CC(CN3CCCC[C@@H]3COc3ccc4c(c3)CN(C3CCC(=O)NC3=O)C4=O)(C1)C2 (stereo partly shown) [Compound I-163]
Problem: For the two items 1 and 2 , which reports the higher DC50 value? Returns: label corresponding to the selected item.
Result: 1
(1: 686 nM, 2: 29 nM)

---

Biological target: HiBit-WIZ fusion protein (Homo sapiens, UniProt O95785+Q96SW2)
Assay: Quantification of WIZ protein levels in HiBit tag fusion protein assay (WIZ HiBit assay in 293T cells)
Assay type: cell-based
Settings: HEK-293T, DMSO-normalized, curve-fitted percentage of WIZ-HiBit remaining at 25 uM; 293T cells; read-out: WIZ Amax
observedProperty: remaining activity at up to 25 µM (%)

Example entries and their recorded answers appear below.
>>> measurednumber("O=C1CCC(N2Cc3cc(OC[C@@H]4CCCCN4CC4CCN(C(=O)OCc5ccccc5)CC4)ccc3C2=O)C(=O)N1 (stereo partly shown) [Compound I-50cr]")
47.1
>>> measurednumber("O=C1CCC(N2Cc3cc(OC[C@H]4CCCCN4Cc4ccc(C5(C(F)(F)F)CC5)cc4)ccc3C2=O)C(=O)N1 (stereo partly shown)")
5.71

(I) O=C1CCC(N2Cc3cc(OC[C@H]4CCCCN4Cc4ccccc4Cn4cncn4)ccc3C2=O)C(=O)N1 (stereo partly shown) [Compound I-50dd]
(II) CC(C)Cn1cc(CN2CCCC[C@H]2COc2ccc3c(c2)CN(C2CCC(=O)NC2=O)C3=O)cn1 (stereo partly shown) [Compound I-50ci]
Problem: Given the two records I and II , choose the one whose remaining activity at up to 25 µM value is lower. Use the label to indicate which entry you chose.
Result: II
(II: 16.8%, I: 60.4%)

---

Biological target: HiBit-WIZ fusion protein (Homo sapiens, UniProt O95785+Q96SW2)
Assay: Quantification of WIZ protein levels in HiBit tag fusion protein assay (WIZ HiBit assay in 293T cells)
Format: cell-based
Details: WIZ HiBit assay in 293T cells; 10-point, 5-fold dose response, highest concentration 25 μM, about 18 hours; read-out: WIZ AC50
observedProperty: DC50 (nM)

>>> measurednumber("COc1cc(CN2CCCC[C@H]2COc2ccc3c(c2)CN(C2CCC(=O)NC2=O)C3=O)ccc1C (some centres unmarked) [Compound I-50s]")
3800
>>> measurednumber("O=C1CCC(N2Cc3cc(OC[C@H]4CCCCN4Cc4cc(F)c(F)c(F)c4)ccc3C2=O)C(=O)N1 (some centres unmarked) [Compound I-144]")
76
>>> measurednumber("O=C1CCC(N2Cc3cc(OC[C@@H]4CCCCN4Cc4ccnc5[nH]ccc45)ccc3C2=O)C(=O)N1 (some centres unmarked) [Compound I-50cx]")
143

(1) O=C1CCC(N2Cc3cc(OC[C@H]4CCCCN4Cc4cnn(C5CCCCC5)c4)ccc3C2=O)C(=O)N1 (some centres unmarked) [Compound I-50ec]
(2) CCn1cc(CN2CCCC[C@@H]2COc2ccc3c(c2)CN(C2CCC(=O)NC2=O)C3=O)cn1 (some centres unmarked) [Compound I-50eo]
Problem: Which has the smaller recorded DC50, 1 or 2 ? Please indicate the selected item by its label.
Result: 1

(A) O=C1CCC(N2Cc3cc(OC[C@H]4CCCCN4Cc4cccc(N5CCCC5)c4)ccc3C2=O)C(=O)N1 (some centres unmarked) [Compound I-50do]
(B) CCN(CC)c1ccc(CN2CCCC[C@H]2COc2ccc3c(c2)CN(C2CCC(=O)NC2=O)C3=O)cn1 (some centres unmarked) [Compound I-50as]
(C) Cc1nc[nH]c1CN1CCCC[C@H]1COc1ccc2c(c1)CN(C1CCC(=O)NC1=O)C2=O (some centres unmarked) [Compound I-50ac]
Problem: Order the records by DC50, with each subsequent value no larger than the one before. Please write the labels in the order that was asked for.
Result: C, B, A
(C: 578 nM, B: 327 nM, A: 2 nM)

---

Biological target: HiBit-WIZ fusion protein (Homo sapiens, UniProt O95785+Q96SW2)
Test: Quantification of WIZ protein levels in HiBit tag fusion protein assay (WIZ HiBit assay in 293T cells)
Type: cell-based
Settings: WIZ HiBit assay in 293T cells; 10-point, 5-fold dose response, highest concentration 25 μM, about 18 hours; read-out: WIZ AC50
observedProperty: DC50 (nM)

Consider the following illustrative entries.
>>> measurednumber("O=C1CCC(N2Cc3cc(OC[C@H]4CCCCN4Cc4ccc5c(c4)OC(F)(F)O5)ccc3C2=O)C(=O)N1 (stereo partly shown)")
0.47
>>> measurednumber("O=C1CCC(N2Cc3cc(OC[C@@H]4CCCCN4Cc4ccc(N5CCCC5)nc4)ccc3C2=O)C(=O)N1 (stereo partly shown) [Compound I-50ak]")
347

(a) CC(C)Cn1cc(CN2CCCC[C@H]2COc2ccc3c(c2)CN(C2CCC(=O)NC2=O)C3=O)cn1 (stereo partly shown) [Compound I-50ci]
(b) CC(C)(C)OC(=O)N1CCN(c2ccc(CN3CCCC[C@@H]3COc3ccc4c(c3)CN(C3CCC(=O)NC3=O)C4=O)cn2)CC1 (stereo partly shown)
Problem: Sorting by DC50 in descending order, would a or b appear first? Response format: the label of the selected entry.
Result: a
(a: 306 nM, b: 4.3 nM)

Cited source: patent US11566022B2
